# testMethodNotes: inhibitors of CD8+ T cell-vesicle binding, pilot screen, LFA-1/ICAM-1 modulator project, MLPCN validation set, flow cytometry (AID 2523)
# reportedConditions: 2C mouse CD8+ T cells, at 7 µM, stronger effect = lower value; measured here: CD8+/vesicle+ event percentage
double positive events under 60% gets 1, anything at or over 60% gets -1.

Recorded results for 6 molecules are shown here.
Cc1csc(-c2coc3cc(O)cc(C)c3c2=O)n1; -1
Nc1cccc2c1nnn2C1OC(CO)C(O)C(O)C1O (stereo unspecified); 1
CC(=O)N(CCC1(C(C)C)CCOC(C)(C)C1)Cc1ccco1 (stereo unspecified); -1
CCn1c(O)c(/C=C2\C=Nc3ccccc32)sc1=O; -1
Oc1ccc(COCc2ccccc2)c2cccnc12; -1
COC1(C)CC2C(CC1OC(=O)c1cc([N+](=O)[O-])cc([N+](=O)[O-])c1)C2(C)C (stereo unspecified); 1

# evaluate next
# input # strict comparison: is reported double positive events < 60%? input = COc1ccccc1C(CC(=O)Nc1ccccc1C)c1ccc(OC(C)C)cc1 (stereo unspecified)
# output -1

----------
Some molecules, each annotated with its measured GFP response relative to DMSO.
# testMethodNotes: LAP4-GFP expression modulators in yeast, confirmation, cell-based, cherry picks, flow cytometry, mother/daughter gates (AID 2271);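 also: ratio of sample to DMSO plate mean so 100% equals DMSO level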
# reportedConditions: S. cerevisiae LAP4-GFP strain, 3 h, at 10 µM, stronger effect = higher value, 100 means same as DMSO control
Please reply with the bare figure in % and do not write the unit itself.

// worked examples, GFP response relative to DMSO included
N#C/C(=C/c1ccc(N2CCOCC2)o1)c1ccc(Cl)cc1; 109
O=C1C(Cl)=C(N2CCN(Cc3ccccc3)CC2)C(=O)N1c1ccccc1; 96.2
O=S(=O)(Nc1cccc(-c2ccc(N3CCCCCC3)nn2)c1)c1ccccc1F; 95.7

# input Returns the measured GFP response relative to DMSO for the input molecule. Input: Cc1nc2c(-c3ccc(F)cc3)c(C)nn2c(N2CCOCC2)c1C
# output 96.5

# input # iterate: Cc1cc(C)nc(/N=C(\N)N2CCCCCC2)n1
# output 103

# input # iterate: O=C(COC(=O)/C=C/c1cccs1)Nc1nc(-c2cccc(Br)c2)cs1
# output 89

# input # iterate: CC(C)c1nnc(NC(=O)c2nc(S(=O)(=O)Cc3ccccc3F)ncc2Cl)s1
# output 108

# input # iterate: Cc1ccc(-c2nc(NC(=O)c3nn(C)cc3[N+](=O)[O-])sc2C)cc1
# output 98.7

----------
Some molecules, each annotated with its measured GFP response relative to DMSO.
# testMethodNotes: LAP4-GFP expression modulators in yeast, confirmation, cell-based, cherry picks, flow cytometry, mother/daughter gates (AID 2271);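 also: ratio of sample to DMSO plate mean so 100% equals DMSO level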
# reportedConditions: S. cerevisiae LAP4-GFP strain, 3 h, measured here: daughter cell gate response, at 10 µM, stronger effect = higher value, 100 means same as DMSO control
Note: state the figure and append the unit.

COc1ccc(N2C(=O)C(Cl)=C(NCc3ccccc3)C2=O)cc1; 111%
COc1ccc(N2CCN(C(=O)CCc3nnc4ccc(N5CCCC5)nn34)CC2)cc1; 98.7%
COc1ccc(C2CC(c3c(-c4ccccc4)c4cc(Cl)ccc4[nH]c3=O)=NN2S(C)(=O)=O)cc1 (stereo not drawn); 97.6%
CC(C)C(=O)NC(c1cccs1)c1cc([N+](=O)[O-])c2cccnc2c1O (stereo not drawn); 99.1%
O=C(Nc1nc2ccc(F)cc2s1)c1ccccn1; 156%

# input Returns the measured GFP response relative to DMSO for the input molecule. Input: COC(=O)COc1ccc(S(=O)(=O)N2CCc3ccccc3C2)cc1
# output 102%

# input # iterate: CCOc1ccc(Nc2ccc(C(=O)O)cc2[N+](=O)[O-])cc1
# output 99.1%

# input # iterate: COc1ccc(Cc2nnc(NC(=O)c3ccccc3F)s2)cc1
# output 105%

# input # iterate: O=S(=O)(c1ccccc1)c1ncc(C(F)(F)F)cc1O
# output 97.5%

# input # iterate: CCOc1ccc(C(C)=O)cc1N1C(=O)C2C3C=CC(O3)C2C1=O (stereo not drawn)
# output 132%

# input # iterate: CCOC(=O)CNc1c(-c2ccc(O)cc2)nc2ccc(Cl)cn12
# output 95%

# input # iterate: O=C1c2ccccc2C2=Nc3ccccc3SC(c3cccc(F)c3)C12 (stereo not drawn)
# output 108%

# input # iterate: CN1C(=O)c2cccc3c(Cl)ccc(c23)C1=O
# output 107%

# input # iterate: O=C1c2ccsc2SCCN1Cc1ccccc1
# output 109%
